experiment: In vivo pharmacokinetics, single oral dose; set-up: species or system mouse; conditions: male, C57BL/6 N, mouse, plasma; mice, single oral gavage 10 mg/kg
Assignment: determine reported Tmax for the given compounds.
Give bare numbers, in min.

Prompt line: Retrieve Tmax measured for COc1ccc2cc3n(cc-2c1=O)CCc1cc2c(cc1-3)OCO2 [Q-BRB, quinoid-type berberrubine] and print it.
Response line: 15

Others:
Prompt line: Retrieve Tmax measured for COc1ccc2cc3[n+](cc2c1O)CCc1cc2c(cc1-3)OCO2 [AcA-BRB, berberrubine acetic acid adduct] and print it.
Response line: 15

###

assay: Water solubility, roughly examined; assay type: physicochemical; details: roughly examined
Structures can show the parent of a compound that is named as a salt.
Assignment: determine reported solubility for the given compounds.

Prompt line: Retrieve solubility measured for COc1ccc2cc3n(cc-2c1=O)CCc1cc2c(cc1-3)OCO2 [berberrubine acetic acid salt] and print it.
Response line: ≥ 30 mg/mL

Others:
Prompt line: Retrieve solubility measured for COc1ccc2cc3[n+](cc2c1O)CCc1cc2c(cc1-3)OCO2 and print it.
Response line: ≥ 1000 mg/mL

The reported measurements were obtained from paper PMC13091788.
